Below, each of the molecules is paired with its reported reduction of FIH inhibition compared to 4 value.
Target: FIH (Homo sapiens, UniProt Q9NWT6)
Construct: made in house
Sequence (Q9NWT6 whole entry): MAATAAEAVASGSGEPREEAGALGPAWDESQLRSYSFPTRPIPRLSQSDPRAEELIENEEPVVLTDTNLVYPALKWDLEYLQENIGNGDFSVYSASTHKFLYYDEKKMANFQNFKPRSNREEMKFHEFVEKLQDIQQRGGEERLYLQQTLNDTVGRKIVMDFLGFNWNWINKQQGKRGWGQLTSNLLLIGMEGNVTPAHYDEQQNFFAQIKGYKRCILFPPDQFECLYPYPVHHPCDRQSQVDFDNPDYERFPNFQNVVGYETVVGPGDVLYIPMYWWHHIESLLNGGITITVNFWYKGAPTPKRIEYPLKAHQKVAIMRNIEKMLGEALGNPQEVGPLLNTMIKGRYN
Assay: SPE-MS FIH inhibition assay
Format: biochemical
Details: IC50 comparison with compound 4
Method: Protein production and purification PAGE analysis) according to established procedures. FIH, PHD2, AspH, JMJD5 and KDM4A inhibition assays The in vitro FIH,1, 2 PHD2,1 AspH,38 JMJD536 and KDM4A39 inhibition assays were performed as […] KDM4A). Synthetic peptide substrates were used: HIF-1α C-terminal transactivation domain fragment […]
reported_endpoint: reduction of FIH inhibition compared to 4

1. O=C(O)CCc1cs/c(=N\C(=O)CS(=O)(=O)c2ccccc2)n1O ... ~10 fold
2. CC(=O)/N=c1\scc(CC(=O)O)n1O ... > 200 fold
3. Cc1s/c(=N\C(=O)CS(=O)(=O)c2ccccc2)n(O)c1CC(=O)O ... > 100 fold
4. CC(C(=O)O)c1cs/c(=N\C(=O)CS(=O)(=O)c2ccccc2)n1O (centres unmarked) ... > 100 fold
5. O=C(O)Cc1cs/c(=N\C(=O)CCNS(=O)(=O)c2ccccc2)n1O ... ~3 fold
